Target: HIS-TGFβR2 WT (Homo sapiens)
Sequence (P37173 23-567): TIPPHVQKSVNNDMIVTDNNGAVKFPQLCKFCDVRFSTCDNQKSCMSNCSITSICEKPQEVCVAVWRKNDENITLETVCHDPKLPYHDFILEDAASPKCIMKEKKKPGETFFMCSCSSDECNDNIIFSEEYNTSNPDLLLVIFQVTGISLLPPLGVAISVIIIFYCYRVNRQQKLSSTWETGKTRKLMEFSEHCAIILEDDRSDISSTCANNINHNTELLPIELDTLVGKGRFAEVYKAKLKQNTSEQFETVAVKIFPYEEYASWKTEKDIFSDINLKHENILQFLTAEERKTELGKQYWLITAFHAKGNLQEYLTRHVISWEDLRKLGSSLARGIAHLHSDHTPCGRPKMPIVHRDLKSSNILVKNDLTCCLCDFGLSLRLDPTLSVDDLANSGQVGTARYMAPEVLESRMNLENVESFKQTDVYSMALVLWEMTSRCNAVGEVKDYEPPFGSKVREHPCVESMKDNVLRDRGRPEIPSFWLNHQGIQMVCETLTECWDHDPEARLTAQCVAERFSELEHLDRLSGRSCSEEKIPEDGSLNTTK
Test: HTRF probe-displacement assay, HIS-TGFβR2 WT
Format: binding
The entries below come with measured IC50 values attached.
Number only, in µM; omit the unit.

Illustrative cases are given below, each with its answer.
>  <compound>
CC(=O)Nc1cc(-c2[nH]c3cc(OC(C)C)cnc3c2-c2cccc(C(F)F)n2)ccn1

>  <endpoint-unit>
µM

>  <reported-result>
3.45

$$$$
>  <compound>
CC(=O)Nc1cc(-c2[nH]c3cc(Cl)cnc3c2-c2cccc(C)n2)ccn1

>  <endpoint-unit>
µM

>  <reported-result>
3.72

$$$$
>  <compound>
COC(=O)Nc1cc(-c2[nH]c3cccnc3c2-c2ccc(OC)nc2)ccn1

>  <endpoint-unit>
µM

>  <reported-result>
0.13

$$$$
>  <compound>
COc1ccc(-c2c(-c3ccnc(N)c3)[nH]c3cccnc23)cn1

>  <endpoint-unit>
µM

>  <reported-result>
0.45

$$$$

Q: For the compound `COc1cnc2c(-c3ccc(F)c(C)n3)c(-c3ccnc(NC(C)=O)c3)[nH]c2c1` , give its reported IC50.
Ans: 0.61

Q: For the compound CC(=O)Nc1cc(-c2[nH]c3c(C(C)O)ccnc3c2-c2cccc(F)n2)ccn1 (centres unmarked) , give its reported IC50.
Ans: 0.267
